B1: library; numbered along this chain (parent)
chain: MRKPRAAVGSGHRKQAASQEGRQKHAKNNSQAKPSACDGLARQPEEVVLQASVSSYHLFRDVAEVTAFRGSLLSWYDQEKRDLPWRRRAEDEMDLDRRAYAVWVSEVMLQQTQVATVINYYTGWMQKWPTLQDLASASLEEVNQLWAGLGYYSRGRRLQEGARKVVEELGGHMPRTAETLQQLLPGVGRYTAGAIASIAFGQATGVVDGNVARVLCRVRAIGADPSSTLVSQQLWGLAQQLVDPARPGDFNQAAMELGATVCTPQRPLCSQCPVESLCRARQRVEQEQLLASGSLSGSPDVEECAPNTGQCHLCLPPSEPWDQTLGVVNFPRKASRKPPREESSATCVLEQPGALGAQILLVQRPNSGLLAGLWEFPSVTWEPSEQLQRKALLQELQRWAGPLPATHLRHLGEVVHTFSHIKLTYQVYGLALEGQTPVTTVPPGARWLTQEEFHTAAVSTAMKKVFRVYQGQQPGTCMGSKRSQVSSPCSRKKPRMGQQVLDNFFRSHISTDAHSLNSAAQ

variants of: B1; test: 8OG:A repair function score (normalized; synonymous = 0, nonsense = -1) (normalized log-likelihood score); higher = more repair activity (WT-like); conditions: with 8OG:A DNA repair reporter (GFP) in HEK-293 MUTYH KO cells;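 also: cells sorted at 72 h after reporter transfection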
Each entry belongs to exactly one class, chosen by where its 8OG:A repair function score falls: group A = under -0.4, group B = from -0.4 up to -0.04, group C = -0.04 and over

{"columns": ["mutation_code", "group_label"],
 "data": [
  ["E395N", "group B"],
  ["L131R", "group A"],
  ["V414K", "group A"],
  ["S344H", "group C"],
  ["A192T", "group A"],
  ["S318R", "group B"],
  ["W235H", "group B"],
  ["R340F", "group A"],
  ["W447P", "group A"],
  ["E141T", "group C"],
  ["G356D", "group B"],
  ["V230W", "group A"],
  ["G326P", "group A"],
  ["W103I", "group A"],
  ["D512K", "group B"],
  ["S296P", "group C"],
  ["D61W", "group B"],
  ["Q394I", "group B"],
  ["D224V", "group A"],
  ["T112V", "group A"],
  ["Q144A", "group B"],
  ["V47Y", "group C"],
  ["R279V", "group B"],
  ["R467F", "group B"],
  ["S105Q", "group A"],
  ["A6N", "group C"],
  ["A457F", "group B"],
  ["L423Q", "group C"],
  ["M93Q", "group C"],
  ["I359G", "group A"],
  ["A192Y", "group A"],
  ["P352D", "group B"],
  ["E303A", "group B"],
  ["S270P", "group C"],
  ["R157I", "group A"],
  ["Q426V", "group B"],
  ["T228N", "group C"],
  ["E168L", "group C"],
  ["Q159R", "group C"],
  ["L139G", "group C"],
  ["A194Y", "group A"],
  ["V441H", "group A"],
  ["T179H", "group C"],
  ["S515P", "group C"],
  ["L277D", "group B"],
  ["Q271V", "group C"],
  ["W321Q", "group B"],
  ["Q397S", "group B"],
  ["Q240W", "group A"],
  ["R266S", "group B"],
  ["S105G", "group B"],
  ["N307W", "group B"],
  ["Q363A", "group B"],
  ["V284N", "group B"],
  ["V362Y", "group A"],
  ["L289W", "group C"],
  ["H420T", "group A"],
  ["G429L", "group B"],
  ["L393C", "group C"],
  ["L370P", "group A"],
  ["W124P", "group A"],
  ["A345E", "group A"],
  ["K80Y", "group B"],
  ["L229A", "group C"],
  ["K390V", "group B"],
  ["E342K", "group C"],
  ["D512R", "group C"],
  ["F200Q", "group A"],
  ["S384V", "group C"],
  ["L268A", "group C"],
  ["T455L", "group B"],
  ["P267R", "group A"],
  ["E302C", "group B"],
  ["A101D", "group C"],
  ["G205V", "group A"],
  ["E285T", "group C"],
  ["L290T", "group C"],
  ["D502P", "group C"],
  ["Q144L", "group C"],
  ["D91Y", "group C"]
]}
